Tested on: P. mirabilis A9900
method.notes: Oral PD50 in mice
Format: in vivo
condition.notes: Proteus mirabilis, A9900, po, 3.5 h, oral; mice treated at 1 and 3.5 hours post-challenge; read-out: PD50
Consider the following compounds; for each one, report its ED50.
All answers are understood in mg/kg, so give the number only.

Problem: Bench note: what ED50 did O=C(O)C1=C(CSc2cnn[nH]2)CS[C@@H]2[C@H](N3C(=O)[C@@H](c4ccc(O)cc4)NC3c3ccc(S(=O)(=O)O)o3)C(=O)N12 (stereo partly shown) show?
Solution: 6.3

Problem: Bench note: what ED50 did CC1=C(C(=O)O)N2C(=O)[C@@H](NC(=O)[C@H](N)c3ccccc3)[C@H]2SC1 [Cephalexin, reference compound] show?
Solution: 66

Problem: Bench note: what ED50 did O=C(O)C1=C(CSc2cnn[nH]2)CS[C@@H]2[C@H](N3C(=O)[C@@H](c4ccc(O)cc4)NC3c3ccccc3S(=O)(=O)O)C(=O)N12 (stereo partly shown) show?
Solution: 8.2

Problem: Bench note: what ED50 did N[C@@H](C(=O)N[C@@H]1C(=O)N2C(C(=O)O)=C(CSc3cnn[nH]3)CS[C@H]12)c1ccc(O)cc1 [BL-S640, reference compound] show?
Solution: 7.2
